target.or.test.system: µOR (Homo sapiens, UniProt P35372)
Sequence (P35372 whole entry): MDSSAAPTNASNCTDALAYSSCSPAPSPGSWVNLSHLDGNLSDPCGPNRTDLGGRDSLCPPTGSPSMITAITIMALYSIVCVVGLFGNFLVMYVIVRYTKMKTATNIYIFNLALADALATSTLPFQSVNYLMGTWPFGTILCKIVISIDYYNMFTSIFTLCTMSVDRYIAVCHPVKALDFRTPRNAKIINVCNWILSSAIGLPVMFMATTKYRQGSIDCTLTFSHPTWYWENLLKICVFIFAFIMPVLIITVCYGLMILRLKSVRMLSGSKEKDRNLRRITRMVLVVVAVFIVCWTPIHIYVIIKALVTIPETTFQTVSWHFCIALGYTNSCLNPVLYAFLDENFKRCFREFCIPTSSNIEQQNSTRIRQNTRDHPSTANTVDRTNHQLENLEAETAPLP
protocol.text: cell-based
Type: cell-based
Quick reference: β-Arrestin 2 µOR Efficacy (% + SEM) of the listed items.
Answer format: numeric, % implied, no suffix.

Below, each entry is followed by its recorded β-Arrestin 2 µOR Efficacy (% + SEM) result.
INSERT INTO assay_data (compound, reported_property, test_value) VALUES
  ('CC(C)C[C@H](NC(=O)[C@H](Cc1cccc(C(F)(F)F)c1)NC(=O)CNC(=O)CNC(=O)[C@@H](N)Cc1ccc(O)cc1)C(=O)O [Compound 1g]', 'β-Arrestin 2 µOR Efficacy (% + SEM)', 71),
  ('CC(C)C[C@H](NC(=O)[C@H](Cc1cccc(I)c1)NC(=O)CNC(=O)CNC(=O)[C@@H](N)Cc1ccc(O)cc1)C(=O)O [Compound 1d]', 'β-Arrestin 2 µOR Efficacy (% + SEM)', 70);

Give its β-Arrestin 2 µOR Efficacy (% + SEM) value. Item: Cc1cccc(C[C@H](NC(=O)CNC(=O)CNC(=O)[C@@H](N)Cc2ccc(O)cc2)C(=O)N[C@@H](CC(C)C)C(=O)O)c1 [Compound 1e]
71

Give its β-Arrestin 2 µOR Efficacy (% + SEM) value. Item: CC(C)C[C@H](NC(=O)[C@H](Cc1cccc(C#N)c1)NC(=O)CNC(=O)CNC(=O)[C@@H](N)Cc1ccc(O)cc1)C(=O)O [Compound 1h]
68
